B1: Azoarcus group I ribozyme (parent)
chain: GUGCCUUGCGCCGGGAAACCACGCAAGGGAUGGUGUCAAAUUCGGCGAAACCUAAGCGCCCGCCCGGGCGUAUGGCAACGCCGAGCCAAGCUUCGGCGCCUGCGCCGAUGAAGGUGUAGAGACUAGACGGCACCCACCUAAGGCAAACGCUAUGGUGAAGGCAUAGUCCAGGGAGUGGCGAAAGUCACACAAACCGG

variants of: B1; test: reverse-splicing fitness (ratio to wild type); higher = more active; in vitro selection; Mg2+ level not given
Endpoint Label: reverse-splicing fitness
Please give the numeric answer without any surrounding text.

>>> assay_result("C82G A111G A120G A145U C150U U176C")
0.0212
>>> assay_result("C82U A111G A120G A145G C150A C169A")
0.00945
>>> assay_result("C82U A111G A120C C150A C169U U176A")
0.017

Qu. Given the variant C82G A111C A120G A145U C150U C169U U176C , what is its reported reverse-splicing fitness?
Ans. 0.0139

Qu. Consider next the variant C82A A111U A120C A145G C150U C169U in the same way.
Ans. 0.0127
